IC50 values recorded for LSD1 (Homo sapiens, UniProt O60341)

Record summary for CNS(=O)(=O)c1cccc(C(=O)N/N=C(\C)c2cc(Cl)ccc2O)c1 [Compound 29] : reported IC50 = 8.7 nM

Record summary for O=C(c1cccc(S(=O)(=O)N2CCOCC2)c1)n1ccc(-c2cc(Cl)ccc2O)n1 [Compound 38] : reported IC50 = > 3000 nM

Record summary for C/C(=N\NC(=O)c1cccc(S(=O)(=O)N2CCC(C)CC2)c1)c1cc(Cl)ccc1O [Compound 26] : reported IC50 = 9.5 nM

Record summary for C/C(=N\NC(=O)c1cccc(S(=O)(=O)N2CCN(C)CC2)c1)c1cc(Cl)ccc1O [Compound 35] : reported IC50 = < 10 nM

The measured values listed here are drawn from patent US9266838B2.
